molecular target: T1, human GLP-1 receptor (human, UniProt P43220 24-463); assay: competitive binding (SPA): displacement of 125I-GLP-1(7-36)NH2 from BHK cell membranes with human GLP-1 receptor; low HSA (max. 0.001% final)
T1 construct: whole, on cells
Numbered stars: 1 amine (or outer) side, 2 acyl side, 3 side chain; on linkers, the order of the positions; unused ones are H or OH. Square brackets hold non-standard residues; d marks the D form. Side chains are listed from the residue outwards. Ends that are not written are not given here. * marks the point of attachment. C20 diacid = O=C(O)CCCCCCCCCCCCCCCCCCC(=O)*; γGlu = O=C(O)[C@H](CCC(=O)[*:2])N[*:1]; εLys = N[C@@H](CCCCN[*:1])C(=O)[*:2]; Trx = NC[C@H]1CC[C@H](C(=O)O)CC1; AEEA = NCCOCCOCC(=O)O; Aib = CC(C)(N)C(=O)O
The label 1 is reserved for IC50 strictly under 0.8 nM; -1 covers values equal to or above it.

A selection of reference data follows.
{"binder": "H[Aib]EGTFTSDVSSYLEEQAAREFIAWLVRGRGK([AEEA-AEEA-γGlu-Trx-C20 diacid])SAEK([AEEA-AEEA-γGlu-Trx-C20 diacid]) (Double-acylated, C-terminally extended GLP-1 analogue made by SPPS; also called 13)", "class-name": -1}
{"binder": "H[Aib]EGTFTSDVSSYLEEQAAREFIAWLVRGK([AEEA-AEEA-γGlu-Trx-C20 diacid])GPASEK([AEEA-AEEA-γGlu-Trx-C20 diacid]) (Double-acylated, C-terminally extended GLP-1 analogue made by SPPS; also called 15)", "class-name": -1}

Does the reported IC50 of H[Aib]EGTFTSDVSSYLEEQAARKFIAWLVRGRGGGGSK (not fully specified (residues 21, 36), Double-acylated, C-terminally extended GLP-1 analogue made by SPPS; The printed name has a typographic slip ('R2S)' for '[(2S)')) stay below 0.8 nM?
1

Hello, I'm reviewing records and need to know if IC50 of H[Aib]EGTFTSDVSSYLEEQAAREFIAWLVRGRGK([AEEA-AEEA-AEEA-AEEA-εLys-εLys-C20 diacid])GGSK([AEEA-AEEA-AEEA-AEEA-εLys-εLys-C20 diacid]) (Double-acylated, C-terminally extended GLP-1 analogue made by SPPS; also called 25) is below 0.8 nM. Could you check?
1

IC50 strictly < 0.8 nM for this binder? H[Aib]EGTFTSDVSSYLEEQAARK([AEEA-AEEA-γGlu-Trx-C20 diacid])FIAWLVRGRGGGGSK([AEEA-AEEA-γGlu-Trx-C20 diacid]) (Double-acylated, C-terminally extended GLP-1 analogue made by SPPS)
1
